The reported numbers originate from patent US7659071B2.

Tested on: PBMC
Experiment: T-cell proliferation assay ([3H]thymidine incorporation, stimulation index)
Format: cell-based, human
Details: Group 3 (disease-free), n = 22
reported-metric: Proliferative Response No (SI < 3.0) to specific peptide, number (%) of women

sequence="QLLRREVYDFAFRDL (listed as Human papillomavirus) [Q15L, E6 peptide from HPV-16, aa 43-57]" recorded_value="11 (50%)"
sequence="QAEPDRAHYNIVTFCCKCD (listed as Human papillomavirus) [Q19D, E7 peptide from HPV-16, aa 44-62]" recorded_value="9 (41%)"
sequence="RAHYNIVTF (listed as Human papillomavirus) [R9F, E7 peptide from HPV-16, aa 49-57]" recorded_value="12 (54%)"
sequence="VYDFAFRDLC (listed as Human papillomavirus) [V10C, E6 peptide from HPV-16, aa 49-58]" recorded_value="11 (50%)"
